Biological target: Methyl-CpG-binding domain protein 2 (Homo sapiens)
Test: inhibitors of MBD2 binding to methylated DNA, primary screen, biochemical, TR-FRET, DNA-binding domain, human (AID 686964)
Details: MBD2 binding to methylated oligonucleotide, at 4.4 µM, stronger effect = higher value
The whole screen tested about 370,000 compounds, of which about 1,100 (0.3%) were called active. The list comes from a sample in which actives are over-represented; it also holds close analogues and randomly drawn compounds.
assay endpoint: inhibition (%)

[
  {
    "compound": "O=C(c1ccncc1)N1CC[C@H]2[C@H](CCCN2Cc2ccc(F)cc2)C1",
    "unit annotation": "%",
    "obs value": -6.65
  },
  {
    "compound": "COc1ccccc1C(=O)NNC(=O)CCN1C(=O)/C(=C\\c2ccccc2)SC1=S",
    "unit annotation": "%",
    "obs value": 13.2
  },
  {
    "compound": "O=C(CCCCCN1C(=O)C2C3C=CC(C3)C2C1=O)Nc1ccccc1 (configuration not stated)",
    "unit annotation": "%",
    "obs value": -6.87
  },
  {
    "compound": "O=C(Cc1ccc(Br)cc1)NCCN1CCOCC1",
    "unit annotation": "%",
    "obs value": -0.23
  },
  {
    "compound": "O=C(CNC(=O)OCc1ccccc1)NC1CCCCNC1=O (configuration not stated)",
    "unit annotation": "%",
    "obs value": 0.98
  },
  {
    "compound": "COc1ccc(-c2noc(CCCC(=O)NC3CCCC3)n2)cc1OC",
    "unit annotation": "%",
    "obs value": -2.51
  },
  {
    "compound": "CCOC(=O)CCP(=O)(O)C(O)(c1ccccc1)c1ccccc1",
    "unit annotation": "%",
    "obs value": 28.3
  },
  {
    "compound": "COc1ccc2[nH]c3c(C)c4cc[n+](C)cc4c(C)c3c2c1",
    "unit annotation": "%",
    "obs value": 109
  },
  {
    "compound": "O=C(OC12CCCN(C1)/C(=C/c1cccnc1)C2)C1CCCC1 (configuration not stated)",
    "unit annotation": "%",
    "obs value": -0.45
  },
  {
    "compound": "Nc1ccccc1C(=O)NC1CCCCNC1=O (configuration not stated)",
    "unit annotation": "%",
    "obs value": 16.1
  },
  {
    "compound": "COc1ccccc1C(=O)Nn1cnnc1",
    "unit annotation": "%",
    "obs value": 3.63
  },
  {
    "compound": "COc1ccc(OCc2cc(C(=O)NCC3(C)COC3)no2)c(Cl)c1",
    "unit annotation": "%",
    "obs value": 17.4
  },
  {
    "compound": "Nc1ccn([C@@H]2O[C@H](C(=O)N[C@H]3CCCCNC3=O)[C@@H](O)[C@H]2O)c(=O)n1",
    "unit annotation": "%",
    "obs value": -2.88
  },
  {
    "compound": "O=c1[nH]cnc2c1c(-c1ccccc1)cn2-c1ccc(F)cc1",
    "unit annotation": "%",
    "obs value": 4.57
  },
  {
    "compound": "Cc1cc(OCc2cc(C(=O)NCc3cc(C(C)C)no3)no2)cc(C)c1Cl",
    "unit annotation": "%",
    "obs value": 4.94
  },
  {
    "compound": "CCOC(=O)CNC(=O)/C=C/c1c(Cl)cccc1Cl",
    "unit annotation": "%",
    "obs value": -5.98
  },
  {
    "compound": "CCOc1ccc(-n2c(SCC(=O)Nc3cc(C)c(NC(=O)c4ccccc4)cc3OC)nnc2-c2cccs2)cc1",
    "unit annotation": "%",
    "obs value": -6.74
  },
  {
    "compound": "O=C(NCCO)C(=O)NCC(c1ccc2c(c1)OCO2)N1CCN(c2ccc(F)cc2)CC1 (configuration not stated)",
    "unit annotation": "%",
    "obs value": 0.87
  },
  {
    "compound": "O=C1CC(c2ccc3c(c2)OCO3)N=C2N(CC3CC3)C/C(=C/c3ccccc3)N12 (configuration not stated)",
    "unit annotation": "%",
    "obs value": -1.23
  },
  {
    "compound": "C=C(C)C#CC(Cc1ccccc1)NCC1CC1 (configuration not stated)",
    "unit annotation": "%",
    "obs value": -0.24
  },
  {
    "compound": "c1ccc2cc3c(NCCN4CCOCC4)ccnc3cc2c1",
    "unit annotation": "%",
    "obs value": 15.3
  },
  {
    "compound": "COc1cc(NC(=O)C2CCCN(S(=O)(=O)c3ccc(C(C)(C)C)cc3)C2)cc(OC)c1 (configuration not stated)",
    "unit annotation": "%",
    "obs value": -0.54
  }
]

---

Molecular target: Methyl-CpG-binding domain protein 2 (Homo sapiens) (UniProt Q9UBB5)
Sequence (Q9UBB5 whole entry, looked up, the tested form may be a part): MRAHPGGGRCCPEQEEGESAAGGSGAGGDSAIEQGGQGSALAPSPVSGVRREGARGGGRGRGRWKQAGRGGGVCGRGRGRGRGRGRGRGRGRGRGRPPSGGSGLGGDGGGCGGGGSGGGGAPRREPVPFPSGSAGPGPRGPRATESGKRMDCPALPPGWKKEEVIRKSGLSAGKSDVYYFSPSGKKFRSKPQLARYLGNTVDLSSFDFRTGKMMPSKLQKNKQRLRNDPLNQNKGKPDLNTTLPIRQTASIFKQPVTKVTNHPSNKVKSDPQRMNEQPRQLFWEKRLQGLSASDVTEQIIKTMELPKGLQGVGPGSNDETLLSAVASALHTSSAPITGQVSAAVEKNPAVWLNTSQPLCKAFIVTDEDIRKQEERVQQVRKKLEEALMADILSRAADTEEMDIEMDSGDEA
Assay: inhibitors of MBD2 binding to methylated DNA, primary screen, biochemical, TR-FRET, DNA-binding domain, human (AID 686964)
Conditions: MBD2 binding to methylated oligonucleotide, at 4.4 µM, stronger effect = higher value
About 1,100 (0.3%) of roughly 370,000 compounds were called active. Only a selection was taken, and actives are over-represented in it overall.
Catalogue of inhibition values
assay endpoint: inhibition (%)

[
  {
    "structure smiles string": "COC(=O)CN1C(=O)N/C(=C/c2ccc(OC)c(C)c2OC)C1=O",
    "obs value": -3.97
  },
  {
    "structure smiles string": "Cc1c(C(=O)NCCN(C)C)oc2ccc(S(=O)(=O)N3CCCC3)cc12",
    "obs value": 4.85
  },
  {
    "structure smiles string": "COc1ccc(Cl)cc1NC(=O)COC(=O)c1ccc(Br)o1",
    "obs value": -1.28
  },
  {
    "structure smiles string": "Cc1ccccc1NC(=O)CN1C(=O)N/C(=C\\c2cccn2-c2cccc(C(=O)O)c2)C1=O",
    "obs value": 20.6
  },
  {
    "structure smiles string": "N#Cc1ccccc1CN1C(=O)S/C(=C/c2cccn2-c2cccc(C(=O)O)c2)C1=O",
    "obs value": 10.6
  }
]

---

Target: Methyl-CpG-binding domain protein 2 (Homo sapiens) (UniProt Q9UBB5)
Assay: inhibitors of MBD2 binding to methylated DNA, primary screen, biochemical, TR-FRET, DNA-binding domain, human (AID 686964)
Conditions: MBD2 binding to methylated oligonucleotide, at 4.4 µM, stronger effect = higher value
Hit rate of the full screen: of about 370,000 compounds, about 1,100 (0.3%) were called active. The sample holds actives, similar compounds and a random draw of the others, so the mix is not that of the screen.
Catalogue of inhibition values
assay endpoint: inhibition (%)

[
  {
    "compound": "CN[C@H]1C[C@H]2c3cc(N4CCOCC4)ccc3CCN2C[C@H]1[C@H](C)O",
    "obs value": -5.62
  },
  {
    "compound": "COc1ccc2c(c1)c(=Cc1ccc(N(C)C)cc1)c1cc(-c3ccccc3)[n+](C)n12",
    "obs value": 29.6
  },
  {
    "compound": "c1coc(CCNc2ncnc3ccc(-c4ccc5c(c4)OCO5)cc23)c1",
    "obs value": -2.55
  },
  {
    "compound": "C=CCN(Cc1ccc2c(c1)OCO2)C(C#CC1CC1)C(C)(C)C (stereo not given)",
    "obs value": 3.04
  },
  {
    "compound": "COC(=O)[C@]1(C#N)CC(=O)N(CC2CCCCC2)[C@@H]1c1ccccc1",
    "obs value": -3.31
  }
]

---

Catalogue of inhibition values
Biological target: Methyl-CpG-binding domain protein 2 (Homo sapiens) (UniProt Q9UBB5)
Assay: inhibitors of MBD2 binding to methylated DNA, primary screen, biochemical, TR-FRET, DNA-binding domain, human (AID 686964)
Details: MBD2 binding to methylated oligonucleotide, at 4.4 µM, stronger effect = higher value
Among all 370,000 compounds or so, about 1,100 (0.3%) were called active. Shown is part of a subset that was picked to be rich in actives.
assay endpoint: inhibition (%)

[
  {
    "compound": "C=CC1=C(C(=O)O)N2C(=O)[C@@H](NC(=O)/C(=N/OCC(=O)O)c3csc(N)n3)[C@H]2SC1",
    "system under test": "Methyl-CpG-binding domain protein 2 (Homo sapiens) (UniProt Q9UBB5)",
    "obs value": 73.1
  },
  {
    "compound": "CCCCCCCCN1C(=O)[C@@H](CC(=O)N2CCN(C(=O)OCC)CC2)C[C@@]2(C(=O)OC)C1=C[C@H](C1CCCC1)O[C@@H]2C",
    "system under test": "Methyl-CpG-binding domain protein 2 (Homo sapiens) (UniProt Q9UBB5)",
    "obs value": -0.47
  },
  {
    "compound": "O=C(NCCCc1ccccc1)[C@H](Cc1ccccc1)NC1(C(=O)NCCc2c[nH]c3ccccc23)CCC1",
    "system under test": "Methyl-CpG-binding domain protein 2 (Homo sapiens) (UniProt Q9UBB5)",
    "obs value": -4.2
  },
  {
    "compound": "CC(C)C(C#CC1CC1)N(Cc1ccc2c(c1)OCO2)C(N)=NC(=O)/C=C/c1cccc(C(F)(F)F)c1 (centres undefined)",
    "system under test": "Methyl-CpG-binding domain protein 2 (Homo sapiens) (UniProt Q9UBB5)",
    "obs value": -0.7
  }
]
